Reported melting point values for the following compounds.

>  <compound>
C=Cn1nc(-c2ccc(OC)cc2)cc(C(=O)NC)c1=O

>  <melting point>
130 to 133 °C

$$$$
>  <compound>
Oc1ccc2nc(-c3ccc(O)c(C45CC6CC(CC(C6)C4)C5)c3)[nH]c2c1

>  <melting point>
241 to 243 °C

$$$$
>  <compound>
CC(=O)c1c(C)sc(-c2ccncc2)c1C

>  <melting point>
80 to 81 °C

$$$$
>  <compound>
O=C(Nc1ccc(C2=NOC(c3cc(Cl)cc(Cl)c3)(C(F)(F)F)C2)cc1)C(F)(F)F (stereo not given)

>  <melting point>
45 to 52 °C

$$$$
>  <compound>
COc1cccc(-c2c(F)c(F)c(N)c(F)c2F)c1

>  <melting point>
94 to 96 °C

$$$$

###

readout_type: melting point

>  <compound>
CC[C@H]1CC[C@H](CCc2ccc(C(=O)CCC(=O)O)cc2)CC1

>  <readout_type>
melting point

>  <readout_value>
141 to 143 °C

$$$$
>  <compound>
COC(=O)NC1=NCC(c2cccc3ccccc23)N1C (stereo not given)

>  <readout_type>
melting point

>  <readout_value>
187 to 190 °C

$$$$
>  <compound>
CN(C)CC(=O)Nc1nc(-c2ccco2)c(C(=O)C2CCOCC2)s1

>  <readout_type>
melting point

>  <readout_value>
129 to 130 °C

$$$$
>  <compound>
COc1ccc2c(ccn2CC(=O)c2ccccc2Br)n1

>  <readout_type>
melting point

>  <readout_value>
116 to 117 °C

$$$$
>  <compound>
COc1ccc2c(-c3ccc(OC(C)=O)cc3)c(-c3ccc(C(F)(F)F)cc3)c(=O)oc2c1

>  <readout_type>
melting point

>  <readout_value>
198 to 201 °C

$$$$

###

>  <compound>
Cc1cc(C)c(S(=O)(=O)N(C)O)c(C)c1

>  <melting point>
83 to 84 °C

$$$$
>  <compound>
COC(=O)Cc1nc(-c2ccc(OC)cc2)c(-c2ccc(OC)cc2)s1

>  <melting point>
79 to 81.5 °C

$$$$
>  <compound>
CN(C)c1nn(-c2cc(F)c(C#N)cc2F)c(=O)n1N

>  <melting point>
154 to 155 °C

$$$$
>  <compound>
O=C(O)COc1cc(Cl)ccc1C(=O)NCc1ccc(OC(F)(F)F)cc1

>  <melting point>
184 to 185 °C

$$$$
>  <compound>
CC1(C)CC(C)(C)c2cc(NC(=O)c3ccc(O)cc3)ccc21

>  <melting point>
185 to 187 °C

$$$$
>  <compound>
C(#Cc1cccs1)c1ccccc1

>  <melting point>
49 to 59 °C

$$$$
>  <compound>
CCC(=O)c1ccc2cc(OC(C)C)ccc2c1

>  <melting point>
79 to 80 °C

$$$$
>  <compound>
NCCC1Cc2ccc(C3=NNC(=O)CC3)cc2C1 (stereo not given)

>  <melting point>
189 to 190 °C

$$$$
>  <compound>
O=C(O)CC(=O)Nc1ccc2c(c1)c(=O)[nH]c(=O)n2CCCCN1CCC(OC(c2ccccc2)c2ccccc2)CC1

>  <melting point>
166 to 168 °C

$$$$
>  <compound>
O=C(CCCCl)Nc1ccc2c(c1)C(=O)c1cc(NC(=O)CCCCl)ccc1C2=O

>  <melting point>
234 °C

$$$$
